- tested-system: T1, ErbB3 (Rattus norvegicus, UniProt Q62799)
- T1 construct: forming the ErbB2/ErbB4 complex in cardiomyocytes and the ErbB2/ErbB3 complex in Schwann cells; endogenous in cells; host or cells: rat Schwann cells
- T1 sequence (Q62799 20-1339): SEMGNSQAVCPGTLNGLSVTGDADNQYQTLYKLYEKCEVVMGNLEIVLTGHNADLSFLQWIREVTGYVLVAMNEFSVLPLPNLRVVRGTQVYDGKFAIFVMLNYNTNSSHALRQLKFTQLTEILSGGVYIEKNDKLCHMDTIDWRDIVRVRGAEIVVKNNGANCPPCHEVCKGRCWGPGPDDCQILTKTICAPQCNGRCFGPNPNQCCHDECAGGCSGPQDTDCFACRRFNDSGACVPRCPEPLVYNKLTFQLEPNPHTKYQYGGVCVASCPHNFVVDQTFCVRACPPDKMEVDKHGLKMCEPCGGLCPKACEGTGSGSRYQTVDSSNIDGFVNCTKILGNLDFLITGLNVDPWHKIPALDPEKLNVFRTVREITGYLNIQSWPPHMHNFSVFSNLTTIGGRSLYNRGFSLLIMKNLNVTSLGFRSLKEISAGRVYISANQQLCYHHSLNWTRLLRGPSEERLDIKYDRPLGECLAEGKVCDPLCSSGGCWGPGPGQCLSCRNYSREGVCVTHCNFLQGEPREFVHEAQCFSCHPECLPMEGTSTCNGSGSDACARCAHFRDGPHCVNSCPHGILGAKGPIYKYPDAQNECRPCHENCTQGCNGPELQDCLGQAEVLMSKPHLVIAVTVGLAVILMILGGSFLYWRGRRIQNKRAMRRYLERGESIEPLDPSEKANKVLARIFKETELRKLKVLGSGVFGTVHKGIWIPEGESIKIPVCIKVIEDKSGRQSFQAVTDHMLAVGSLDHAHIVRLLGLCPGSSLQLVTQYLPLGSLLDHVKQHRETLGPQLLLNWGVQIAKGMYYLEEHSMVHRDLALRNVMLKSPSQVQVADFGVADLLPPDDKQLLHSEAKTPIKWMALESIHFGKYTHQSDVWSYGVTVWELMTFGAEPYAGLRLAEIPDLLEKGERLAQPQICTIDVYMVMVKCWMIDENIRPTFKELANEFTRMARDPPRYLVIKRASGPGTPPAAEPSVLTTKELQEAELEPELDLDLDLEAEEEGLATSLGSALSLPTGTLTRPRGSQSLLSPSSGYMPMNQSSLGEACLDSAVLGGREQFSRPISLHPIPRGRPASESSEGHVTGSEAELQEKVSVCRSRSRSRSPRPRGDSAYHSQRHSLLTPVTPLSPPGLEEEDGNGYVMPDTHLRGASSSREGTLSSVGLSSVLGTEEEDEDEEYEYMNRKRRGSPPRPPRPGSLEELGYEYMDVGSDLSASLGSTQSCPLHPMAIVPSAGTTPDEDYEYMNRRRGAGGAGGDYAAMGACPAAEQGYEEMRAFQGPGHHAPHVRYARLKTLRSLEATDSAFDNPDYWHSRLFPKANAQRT
- T1 sequence (P06494 23-1257 partner): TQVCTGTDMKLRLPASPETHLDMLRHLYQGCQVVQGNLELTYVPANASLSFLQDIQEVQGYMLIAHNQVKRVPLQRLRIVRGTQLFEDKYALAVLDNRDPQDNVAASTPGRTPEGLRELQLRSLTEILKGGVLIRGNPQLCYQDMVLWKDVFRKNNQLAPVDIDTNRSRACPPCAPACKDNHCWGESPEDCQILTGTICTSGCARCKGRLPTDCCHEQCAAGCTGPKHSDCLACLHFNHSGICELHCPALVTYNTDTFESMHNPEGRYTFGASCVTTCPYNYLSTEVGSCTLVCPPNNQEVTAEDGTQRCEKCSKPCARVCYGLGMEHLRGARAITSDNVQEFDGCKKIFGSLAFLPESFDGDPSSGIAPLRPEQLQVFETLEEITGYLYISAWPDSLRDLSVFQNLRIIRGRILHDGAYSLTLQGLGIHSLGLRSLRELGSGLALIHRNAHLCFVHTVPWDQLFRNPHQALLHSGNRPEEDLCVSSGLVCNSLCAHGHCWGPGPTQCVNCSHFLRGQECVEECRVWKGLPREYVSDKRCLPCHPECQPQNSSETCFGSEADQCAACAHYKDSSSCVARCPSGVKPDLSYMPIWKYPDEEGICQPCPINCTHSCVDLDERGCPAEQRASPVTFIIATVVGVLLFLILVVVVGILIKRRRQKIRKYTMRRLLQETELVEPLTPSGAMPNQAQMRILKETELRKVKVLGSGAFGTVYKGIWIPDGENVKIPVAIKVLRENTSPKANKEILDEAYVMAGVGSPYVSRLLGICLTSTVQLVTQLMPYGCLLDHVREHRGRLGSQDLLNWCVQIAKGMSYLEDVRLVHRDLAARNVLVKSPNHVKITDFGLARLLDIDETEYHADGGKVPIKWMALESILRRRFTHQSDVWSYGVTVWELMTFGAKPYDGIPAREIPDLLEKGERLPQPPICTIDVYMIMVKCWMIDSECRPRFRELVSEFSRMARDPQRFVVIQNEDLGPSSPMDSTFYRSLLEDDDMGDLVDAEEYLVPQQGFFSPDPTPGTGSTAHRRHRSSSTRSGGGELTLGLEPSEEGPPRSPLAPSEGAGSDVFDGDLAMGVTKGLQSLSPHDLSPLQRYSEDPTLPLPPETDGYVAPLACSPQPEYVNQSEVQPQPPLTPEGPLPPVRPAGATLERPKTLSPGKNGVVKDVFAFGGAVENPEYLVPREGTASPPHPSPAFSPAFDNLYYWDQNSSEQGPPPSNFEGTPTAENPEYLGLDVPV
- assay-remarks: In vitro phosphorylation of Akt in rat Schwann cells
- Format: cell-based
- experimental-context: Akt (Serine 473) phosphorylation, 15 minutes treatment, read-out: Schwann cells (SC) (ErbB3) Avg EC50
Listing of recorded EC50 by entry.

molecule	EC50
huNRG1(S177-F229)(NRGE1C) (E47K_D48T_F49S_M50L) 6xHis: 6xHis-tagged NRG1 variant SEQ ID NO:120 (protein, 6xHis tag; huNRG1(S177-F229)(NRGE1C) (E47K_D48T_F49S_M50L) 6xHis) SHLVKCGEKHKSFCVNGGECFMIEGPSNPSRYLCKCPNEFTGDRCQKTSLASFGGGGEGGGGAGGGGHHHHHH	10 µM

Q. Item huNRG1(S177-F229)(NRGE1D) (E47S_D48S_F49E_M50L) 6xHis: 6xHis-tagged NRG1 variant SEQ ID NO:128 (protein, 6xHis tag; huNRG1(S177-F229)(NRGE1D) (E47S_D48S_F49E_M50L) 6xHis) SHLVKCGESHKSFCVNGGECYMVEGSSIPSRYLCKCPNEFTGDRCQSSELASFGGGGEGGGGAGGGGHHHHHH has what recorded EC50?
A. 10 µM

Q. Item huNRG1(S177-F229)(NRGE1D) 6xHis: 6xHis-tagged NRG1 variant SEQ ID NO:126 (protein, 6xHis tag; huNRG1(S177-F229)(NRGE1D) 6xHis) SHLVKCGESHKSFCVNGGECYMVEGSSIPSRYLCKCPNEFTGDRCQEDFMASFGGGGEGGGGAGGGGHHHHHH has what recorded EC50?
A. 10 µM
